The values you see were collected from patent US20240150377A1.

Catalogue of molecules with associated pEC50
Molecular target: CFTR (Homo sapiens, UniProt P13569)
Sequence (P13569 with tags, fused parts or gaps DEL508-508): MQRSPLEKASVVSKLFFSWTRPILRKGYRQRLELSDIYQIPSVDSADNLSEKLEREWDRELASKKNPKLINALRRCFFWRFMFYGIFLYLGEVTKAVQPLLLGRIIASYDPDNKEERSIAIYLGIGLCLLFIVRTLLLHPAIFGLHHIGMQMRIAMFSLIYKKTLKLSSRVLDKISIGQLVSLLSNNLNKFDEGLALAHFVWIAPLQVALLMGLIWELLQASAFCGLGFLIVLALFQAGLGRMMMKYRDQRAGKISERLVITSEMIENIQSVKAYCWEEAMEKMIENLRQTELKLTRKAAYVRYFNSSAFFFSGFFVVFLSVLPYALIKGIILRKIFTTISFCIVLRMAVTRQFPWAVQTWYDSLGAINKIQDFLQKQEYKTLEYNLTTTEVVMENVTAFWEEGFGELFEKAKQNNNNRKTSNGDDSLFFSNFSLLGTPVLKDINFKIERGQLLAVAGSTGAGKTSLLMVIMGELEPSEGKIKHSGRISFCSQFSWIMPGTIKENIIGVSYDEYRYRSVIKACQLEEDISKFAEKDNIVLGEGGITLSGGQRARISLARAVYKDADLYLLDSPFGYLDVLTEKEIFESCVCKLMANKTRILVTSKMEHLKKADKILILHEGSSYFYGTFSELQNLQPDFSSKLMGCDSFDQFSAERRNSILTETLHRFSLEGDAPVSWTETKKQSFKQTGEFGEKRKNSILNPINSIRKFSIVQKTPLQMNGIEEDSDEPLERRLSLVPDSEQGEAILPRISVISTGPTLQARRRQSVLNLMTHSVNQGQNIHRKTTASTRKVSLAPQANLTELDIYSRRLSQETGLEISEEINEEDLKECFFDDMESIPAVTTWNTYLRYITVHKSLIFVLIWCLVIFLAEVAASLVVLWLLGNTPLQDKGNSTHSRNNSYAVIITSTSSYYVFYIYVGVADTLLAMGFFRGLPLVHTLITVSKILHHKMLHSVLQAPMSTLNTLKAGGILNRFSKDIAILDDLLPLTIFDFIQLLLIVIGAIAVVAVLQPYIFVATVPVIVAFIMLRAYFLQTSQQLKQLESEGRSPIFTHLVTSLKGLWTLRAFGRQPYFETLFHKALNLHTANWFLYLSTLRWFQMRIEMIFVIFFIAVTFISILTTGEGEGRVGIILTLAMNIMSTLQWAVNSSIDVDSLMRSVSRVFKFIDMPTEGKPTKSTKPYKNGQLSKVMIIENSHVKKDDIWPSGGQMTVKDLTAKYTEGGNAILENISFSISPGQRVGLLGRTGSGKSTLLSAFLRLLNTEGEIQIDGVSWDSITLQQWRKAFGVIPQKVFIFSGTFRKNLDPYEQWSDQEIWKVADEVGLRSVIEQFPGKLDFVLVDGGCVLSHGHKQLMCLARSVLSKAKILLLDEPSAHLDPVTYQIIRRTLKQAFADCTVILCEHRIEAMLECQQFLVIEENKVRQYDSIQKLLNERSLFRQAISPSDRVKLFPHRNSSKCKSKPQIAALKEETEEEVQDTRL
Assay: Membrane potential dye, Enteroid Assay A
Type: cell-based
Conditions: Table 6; human enteroid cells, 18-24 hours; acute 10 μM forskolin and 300 nM ivacaftor; read-out: Ent. A EC50
Protocol: Base medium (ADF+++) consisted of Advanced DMEM/Ham's F12, 2 mM Glutamax, 10 mM HEPES, […] penicillin/streptomycin. […] Enteroid cells were incubated with test compound in IEMM for 18-24 hours at 37° C., 95% humidity and 5% CO2. […] Chloride transport was initiated by addition of Chloride Free Dye Stimulation Solution and the fluorescence signal was read for 15 min. […]
pEC50: −log10 of the molar value.

>  <MOLECULE>
Cc1cccc(C)c1-c1cc2nc(n1)NS(=O)(=O)c1cccc(c1)C(=O)N(C[C@@H](O)CO)[C@H](CC(C)C)CO2 [Compound 38]

>  <pEC50>
> 6.00

$$$$
>  <MOLECULE>
Cc1cccc(C)c1-c1cc2nc(n1)NS(=O)(=O)c1cccc(c1)C(=O)N(CC(C)C)[C@H](CC(C)C)CO2 [Compound 865]

>  <pEC50>
> 6.00

$$$$
>  <MOLECULE>
Cc1cccc(C)c1-c1cc2nc(n1)NS(=O)(=O)c1cccc(c1)C(=O)N(Cc1ccccc1)CCO2 [Compound 978]

>  <pEC50>
> 6.00

$$$$
>  <MOLECULE>
Cc1cccc(C)c1-c1cc2nc(n1)NS(=O)(=O)c1cccc(c1)C(=O)N(Cc1ccc[nH]c1=O)[C@H](CC(C)C)CO2 [Compound 989]

>  <pEC50>
5.52 to 6.00

$$$$
>  <MOLECULE>
Cc1cccc(C)c1-c1cc2nc(n1)NS(=O)(=O)c1cccc(c1)C(=O)N(Cc1ccc(C(C)(C)C)cc1)[C@H](CC(C)C)CO2 [Compound 425]

>  <pEC50>
> 6.00

$$$$
>  <MOLECULE>
Cc1cccc(C)c1-c1cc2nc(n1)NS(=O)(=O)c1cccc(c1)C(=O)N(Cc1ccc(N3CCC(C)CC3)nc1)[C@H](CC(C)C)CO2 [Compound 975]

>  <pEC50>
> 6.00

$$$$
>  <MOLECULE>
Cc1cccc(C)c1-c1cc2nc(n1)NS(=O)(=O)c1cccc(c1)C(=O)N(CCC1(C(F)(F)F)CC1)[C@H](CC(C)C)CO2 [Compound 37]

>  <pEC50>
> 6.00

$$$$
>  <MOLECULE>
Cc1cccc(C)c1-c1cc2nc(n1)NS(=O)(=O)c1cccc(c1)NC(=O)CN(C(=O)OC(C)(C)C)CCO2 [Compound 516]

>  <pEC50>
4.52 to 5.52

$$$$
>  <MOLECULE>
Cc1cccc(C)c1-c1cc2nc(n1)NS(=O)(=O)c1cccc(c1)C(=O)N(CCC(C)(C)C)CC(c1ccc(C(C)(C)C)cc1)O2 (centres unmarked) [Compound 14]

>  <pEC50>
> 6.00

$$$$
>  <MOLECULE>
Cc1cccc(C)c1-c1cc2nc(n1)NS(=O)(=O)c1cccc(c1)C(=O)N(CC1CCCC1)[C@H](CC(C)C)CO2 [Compound 350]

>  <pEC50>
> 6.00

$$$$
>  <MOLECULE>
Cc1cccc(C)c1-c1cc2nc(n1)NS(=O)(=O)c1cccc(c1)C(=O)N(CCC1CCOCC1)[C@H](CCC1(C(F)(F)F)CC1)CO2 (single isomer, unassigned) [Compound 72]

>  <pEC50>
> 6.00

$$$$
